# measured target: intracellular domain of DDR1 (Homo sapiens)
# Construct: the intracellular domain of DDR1 (in a final concentration of 5 ng/μL) (Carna Biosciences, Inc.)
# Sequence (Q08345 439-913 limits assumed): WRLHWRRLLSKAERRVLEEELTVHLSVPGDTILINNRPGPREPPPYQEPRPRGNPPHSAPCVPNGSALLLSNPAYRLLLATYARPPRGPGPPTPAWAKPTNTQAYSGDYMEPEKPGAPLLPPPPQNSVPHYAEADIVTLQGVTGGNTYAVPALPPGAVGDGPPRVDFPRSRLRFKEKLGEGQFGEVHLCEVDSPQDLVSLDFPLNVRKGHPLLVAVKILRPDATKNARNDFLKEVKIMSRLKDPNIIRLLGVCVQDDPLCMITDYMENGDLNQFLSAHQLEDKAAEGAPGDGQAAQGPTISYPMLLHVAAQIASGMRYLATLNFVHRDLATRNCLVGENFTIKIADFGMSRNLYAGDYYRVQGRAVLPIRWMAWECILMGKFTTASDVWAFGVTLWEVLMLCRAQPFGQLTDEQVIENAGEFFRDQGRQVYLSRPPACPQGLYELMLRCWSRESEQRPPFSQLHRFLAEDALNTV
# assay protocol: Evaluation of DDR1 inhibition activity with HTRF KinEASE-TK kit
# conditions used: DDR1 intracellular domain 5 ng/μL, ATP 25 μm/L, TK Substrate-biotin 1000 nmol/L, room temperature, one hour
recorded endpoint: IC50 (nM)

For orientation, consider the following solved cases.
1) COc1ccc(C(F)(F)F)cc1NC(=O)N[C@H]1CC[C@H](OCc2ccncc2)CC1    124
2) COc1c(CO)cc(C(F)(F)F)cc1NC(=O)N[C@H]1CC[C@H](Oc2ncccn2)CC1    96.7
3) O=C(Nc1cc(C(F)(F)F)ccc1OC1CNC1)N[C@H]1CC[C@H](OCc2ccncc2)CC1    76.7
4) COc1ccc(C(F)(F)F)cc1NC(=O)N[C@H]1CC[C@H](OCc2cccnc2)CC1    17.2
5) O=C(Nc1cccc(C(F)(F)F)c1)N[C@H]1CC[C@H](OCc2ccncc2)CC1    234

(P) CNc1nccc(O[C@H]2CC[C@H](NC(=O)Nc3cc(C(F)(F)F)ccc3OC3COC3)CC2)n1
(Q) O=C(Nc1cc(C(F)(F)F)ccc1N1CCOCC1)N[C@H]1CC[C@H](OCc2ccncc2)CC1
When P and Q are compared, which has the higher number for IC50? // caller expects the label of the chosen entry Q
(Q: 103 nM, P: 54.5 nM)

Each recorded value in this set is attributed to patent US10280145B2.
